Target: T1, biotinylated goat anti-human kappa light chain
T1 construct: positive control of the ELISA
Experiment: ELISA, positive control; note: test concentration or dose not given here
value_type: optical density

1) 369_D09 (antibody, V domains shown, Group III) VH: EVQLLESGGGLVQPGGSLRLSCAASGFTFSDYGMNWVRQAPGKGLEWVSNINYNGGYTSYADSVKGRFTISRDNSKNTLYLQMNSLRAEDTAVYYCARGANWHDTALDYWGQGTLVTVSS VL: DIQMTQSPSSLSASVGDRVTITCRASQSILTYLNWYQQKPGKAPKLLIYAATSRASGVPSRFSGSGSGTDFTLTISSLQPEDFATYYCQQSYDSPLTFGGGTKVEIK ... 3.45 OD
2) 375_D01 (antibody, V domains shown, Group III) VH: EVQLLESGGGLVQPGGSLRLSCAASGFTFSSYSMNWVRQAPGKGLEWVSGINYNGGYTGYADSVKGRFTISRDNSKNTLYLQMNSLRAEDTAVYYCARGANWHDTALDYWGQGTLVTVSS VL: DIQMTQSPSSLSASVGDRVTITCRASQSILTYLNWYQQKPGKAPKLVIYAATSRASGVPSRFSGSGSGTDFTLTISSLQPEDFATYYCQQSYETPLTFGGGTKVEIK ... 3.1 OD
3) 375_E03 (antibody, V domains shown, Group III) VH: EVQLLESGGGLVQPGGSLRLSCAASGFTFSDYSMNWVRQAPGKGLEWVANINYNGGYTGYADSVKGRFTISRDNSKNTLYLQMNSLRAEDTAVYYCARGANWHDTHLDYWGQGTLVTVSS VL: DIQMTQSPSSLSASVGDRVTITCRASQSILTYLNWYQQKPGKAPKLVIYAATSLASGVPSRFSGSGSGTDFTLTISSLQPEDFATYYCQQSYDNPLTFGGGTKVEIK ... 3.18 OD
4) 367_B01 (antibody, V domains shown, Group III) VH: EVQLLESGGGLVQPGGSLRLSCAASGFTFSSYSMNWVRQAPGKGLEWVAGINYNGGYKGYADSVKGRFTISRDNSKNTLYLQMNSLRAEDTAVYYCARGANWHDTALDYWGQGTLVTVSS VL: DIQMTQSPSSLSASVGDRVTITCRASQSISSYVNWYQQKPGKAPKLVIYAATSRASGVPSRFSGSGSGTDFTLTISSLQPEDFATYYCQQSYSTPLTFGGGTKVEIK ... 3.67 OD
5) 374_G11 (antibody, V domains shown, Group III) VH: EVQLLESGGGLVQPGGSLRLSCAASGFTFSDYSMNWVRQAPGKGLEWVSGINYNGGYTSYADSVKGRFTISRDNSKNTLYLQMNSLRAEDTAVYYCARGANWHDTALDYWGQGTLVTVSS VL: DIQMTQSPSSLSASVGDRVTITCRASQSIISYVNWYQQKPGKAPKLVIYAATSLASGVPSRFSGSGSGTDFTLTISSLQPEDFATYYCQQSYDSPLTFGGGTKVEIK ... 3.25 OD
6) 367_D12 (antibody, V domains shown, Group III) VH: EVQLLESGGGLVQPGGSLRLSCAASGFTFSSYSMNWVRQAPGKGLEWVSSINYNGGYTGYADSVKGRFTISRDNSKNTLYLQMNSLRAEDTAVYYCARGANWHDTHLDYWGQGTLVTVSS VL: DIQMTQSPSSLSASVGDRVTITCRASQSIVSYVNWYQQKPGKAPKLVIYAATSRASGVPSRFSGSGSGTDFTLTISSLQPEDFATYYCQQSYESPLTFGGGTKVEIK ... 3.57 OD
7) 375_E02 (antibody, V domains shown, Group III) VH: EVQLLESGGGLVQPGGSLRLSCAASGFTFSDYSMNWVRQAPGKGLEWVAGINYNGGYTSYADSVKGRFTISRDNSKNTLYLQMNSLRAEDTAVYYCARGANWHDTALDYWGQGTLVTVSS VL: DIQMTQSPSSLSASVGDRVTITCRASQSILTYLNWYQQKPGKAPKLLIYAATSRASGVPSRFSGSGSGTDFTLTISSLQPEDFATYYCQQSYSSPLTFGGGTKVEIK ... 3.2 OD
8) 368_E12 (antibody, V domains shown, Group III) VH: EVQLLESGGGLVQPGGSLRLSCAASGFTFSDYGMNWVRQAPGKGLEWVAGINYNGGYTSYADSVKGRFTISRDNSKNTLYLQMNSLRAEDTAVYYCARGANWHDTHLDYWGQGTLVTVSS VL: DIQMTQSPSSLSASVGDRVTITCRASQSIVSYVNWYQQKPGKAPKLVIYAVTSRASGVPSRFSGSGSGTDFTLTISSLQPEDFATYYCQQSYDSPLTFGGGTKVEIK ... 3.65 OD
9) 373_F11 (antibody, V domains shown, Group III) VH: EVQLLESGGGLVQPGGSLRLSCAASGFTFDSYGMHWVRQAPGKGLEWVSGINYNSGYTSYADSVKGRFTISRDNSKNTLYLQMNSLRAEDTAVYYCARGANWHDTHLDYWGQGTLVTVSS VL: DIQMTQSPSSLSASVGDRVTITCRASQSIVSYVNWYQQKPGKAPKLLIYAATSRASGVPSRFSGSGSGTDFTLTISSLQPEDFATYYCQQSYNLPLTFGGGTKVEIK ... 3.32 OD
10) 373_A03 (antibody, V domains shown, Group III) VH: EVQLLESGGGLVQPGGSLRLSCAASGFTFSDYSMNWVRQAPGKGLEWVANINYNGGYTGYADSVKGRFTISRDNSKNTLYLQMNSLRAEDTAVYYCARGANWHDTALDYWGQGTLVTVSS VL: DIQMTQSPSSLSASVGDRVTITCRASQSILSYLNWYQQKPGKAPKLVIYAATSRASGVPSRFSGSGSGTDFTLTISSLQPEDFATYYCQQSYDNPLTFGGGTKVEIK ... 3.08 OD

Numbers sourced from patent US20210380703A1.
